Would you kindly list growth for each of these compounds?
- System: MOLT-4 leukemia
- TEST: NCI-60 one-dose screen, 48 h (100 = growth as untreated, 0 = no growth, -100 = all killed)
- RUN_PARAMETERS: 10 µM unless noted
Compounds without any hit were thinned out: in the full panel of roughly 83,000, 20% have a hit.
The response must be a number in % with no trailing unit.

// query Value wanted: growth (MOLT-4 leukemia) of entry CCCCCN1C(=O)/C(=c2\sc3n(c2=O)C2C(NN=3)N(CC)C(=O)N2CC)c2cccc(C)c21 (stereo unspecified)
// result 53.1

// query Value wanted: growth (MOLT-4 leukemia) of entry COc1ccc(C2C(C#N)=C(/N=C/c3ccc(Cl)cc3)Oc3c2sc2c(C)cccc32)cc1 (stereo unspecified)
// result 17

// query Value wanted: growth (MOLT-4 leukemia) of entry Cc1ccc2c(n1)C(=O)C(Cl)=C(Nc1ccc(C(F)(F)F)cc1)C2=O
// result 8.71

// query Value wanted: growth (MOLT-4 leukemia) of entry Cc1ccc(C(=O)Nc2ccc(CNCCN3CCNCC3)c(C(F)(F)F)c2)cc1C#Cc1cnc2cccnn12
// result -49.5

// query Value wanted: growth (MOLT-4 leukemia) of entry CCCCCC[n+]1ccc(SCC(=O)n2ccc3ccccc32)c2ccccc21
// result 79.4

// query Value wanted: growth (MOLT-4 leukemia) of entry O=S1SC(c2ccccc2)=NN1c1cc(F)cc(F)c1 (stereo unspecified)
// result 17.5

These entries and their values trace back to PubChem BioAssay (NCI).
